- System: MCF7 breast
- MEASUREMENT_NOTES: NCI-60 one-dose screen, 48 h (100 = growth as untreated, 0 = no growth, -100 = all killed)
- CONDITIONS_USED: 10 µM unless noted
Compounds without any hit were thinned out: in the full panel of roughly 83,000, 20% have a hit.
MEASURED_ATTRIBUTE: growth (%)
Return type: number; implicit unit %.

Item `CCOC(=O)C(=CCC(C)C)C(=O)OCC` has what recorded growth?
99.5

// next record `COc1ccc(Cn2cc(C(=O)Nc3cccnc3Nc3ccccc3)nn2)cc1`
91

// next record `Nc1ncc(-c2ccc3ncnc(N4CCc5ccc(Cl)cc54)c3c2)cc1C(F)(F)F`
7.34

// next record O=C(NNc1ccccc1)C1CCCN1 (stereo not given)
76.4

// next record `N#Cc1ccccc1-c1ccc(Cn2c(-c3cscn3)nc3c(Cl)cccc32)cc1`
64.2

// next record COc1ccc(C2=C(CN)C(O)NC(=NCC(=O)c3ccc4ccccc4c3)N2)cc1 (stereo not given)
96.2

// next record `COc1ccc(/C=C2\COc3ccc(O)c(O)c3C2=O)c(OC)c1OC`
14.8

// next record `CCOC(=O)c1cc2c(n1Cc1cc(OC)cc(OC)c1Br)-c1nc(NC(C)=O)sc1CCC2`
57.6

// next record `O=C1/C(=C/c2ccc(-c3ccccc3C(F)(F)F)o2)SC(=S)N1CCc1ccc(O)cc1`
27.7

// next record `Cc1ccc(-c2nc3nc(-c4ccccc4)nc(N4CCCNCC4)c3o2)cc1`
-78.4

// next record `C=C(C)[C@@H]1CC[C@]2(C(=O)N3CCN(C)CC3)CC[C@]3(C)[C@H](CC[C@@H]4[C@@]5(C)CC(CCCNC(C)=O)(CCCNC(C)=O)[C@H](OC(C)=O)C(C)(C)[C@@H]5CC[C@]43C)[C@@H]12`
89.1

// next record `N=C(N)SCc1c2ccccc2c(CSC(=N)N)c2ccccc12`
38.3

// next record `Nc1[nH]nc(Nc2ccccc2)c1-c1nc2ccccc2s1`
12.4

// next record `CC1(C)C(N)=Nc2cc(OCCCCN3Cc4ccccc4C3)c(OCC3CC3)cc21`
48.5

// next record `c1ccc(Cc2cccc[n+]2C(c2ccccc2)c2ccccc2)cc1`
34.6

// next record `COc1ccc(C/C(C)=C(/c2ccc(OCCN3CCCC3)cc2)c2ccc(OC(=O)NCc3ccccc3)cc2)cc1`
30.7

// next record `COc1cc(/C=N/NC(=O)CCN2c3ccccc3Sc3ccccc32)cc(OC)c1OC`
97.3

// next record `CC/C=C\C/C=C\C[C@H](O)C/C=C1/C(=O)C=C[C@@H]1C/C=C\CCCC(=O)OC`
2.32

// next record `Nc1nc(Nc2ccc(F)cc2)nn1C(=O)c1cc(Cl)ccc1Cl`
48.8

// next record COC(=O)c1[nH]nc(OC)c1C1(C(C#N)c2nc3ccccc3s2)CCCc2ccccc21 (stereo not given)
84.8
